Molecular target: OTU domain-containing protein 3 (Homo sapiens)
Assay: Validation of screening hits, potency titration, in vitro enzymatic, OTU domain-containing protein 3 DUB inhibitors (AID 1645868)
Settings: purified OTUD3, ubiquitin-rhodamine cleavage fluorescence, 2 h
Activity calls are given as the source filed them.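 How the source made its calls: active means maximal percent inhibition of the deubiquitinase OTUD3 of at least 30% across the tested doses; inactive means the rest.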
Outcomes: active, inactive

Molecule: CSc1cccc(NC(=O)CCc2ccc3nc(NC(C)=O)sc3c2)c1
Answer Label: inactive
//
Molecule: CCS(=O)(=O)c1ccccc1C(=O)Nc1ccc2sc(C)nc2c1
Answer Label: inactive
//
Molecule: COc1ccccc1CNC(=O)Nc1cccc2ccccc12
Answer Label: active
//
Molecule: COc1ccc(C(=O)CSc2nnc(-c3cccnc3)n2-c2ccccc2)cc1
Answer Label: inactive
//
Molecule: Cn1cc(-c2noc(Cc3cccc(C(F)(F)F)c3)n2)ccc1=O
Answer Label: inactive
//
Molecule: Cc1ccc(C(=O)Nc2ccc(S(=O)(=O)N3CCCC3)cc2)cc1Br
Answer Label: inactive
//
Molecule: COc1cccc(-n2c(CNCc3cccnc3)nc3ccc([N+](=O)[O-])cc3c2=O)c1
Answer Label: inactive
//
Molecule: N#Cc1cccc(NC(=O)Nc2cccn(Cc3ccccc3F)c2=O)c1
Answer Label: inactive
//
Molecule: Cc1ccc2[nH]c(=O)c(CN(Cc3cccnc3)C(=O)c3cccc(Cl)c3)cc2c1
Answer Label: inactive
//
Molecule: CNC(=O)c1cc2nc(N(C)C)n(-c3ccc(F)cc3)c2s1
Answer Label: inactive
//
Molecule: CSc1cccc(NC(=O)COc2cccc3ccccc23)c1
Answer Label: active
//
Molecule: O=C(Nc1cccc(C(F)(F)F)c1)N1CCCn2c(nc3ccccc32)C1
Answer Label: active
//
Molecule: COc1ccccc1-c1ccc(SCC(=O)Nc2ccc3c(c2)OCCO3)nn1
Answer Label: inactive
//
Molecule: O=C(NCc1ccc(F)cc1)C1CCN(c2cnc(N3CCCCC3)nc2)CC1
Answer Label: inactive
//
Molecule: COc1ccc(-c2cc(C(=O)N3CCN(c4ccc([N+](=O)[O-])cc4)CC3)[nH]n2)cc1
Answer Label: inactive
//
Molecule: CCN(C(=O)c1cc2c(s1)-c1ccccc1OC2)c1ccccc1F
Answer Label: inactive
//
Molecule: COc1ccc2nc3c(cc2c1)c(=O)n(C)c1c3c(=O)n(-c2ccccc2)c(=O)n1-c1ccccc1
Answer Label: inactive
//
Molecule: CCOc1ccc(NC(=O)COc2cccc(-n3cnnn3)c2)cc1
Answer Label: inactive
//
Molecule: COc1cccc(NC(=O)c2ccc(-c3csc(C)n3)cc2)c1
Answer Label: inactive
//
Molecule: CCN1C(=O)c2cccnc2Sc2cc(NC(=O)c3ccc(Cl)s3)ccc21
Answer Label: inactive
//
Molecule: Cc1cc(C(=O)Nc2ccc3c(c2)OCCO3)no1
Answer Label: inactive
//
Molecule: O=C(Cc1noc2ccccc12)N1CCN(c2ccc([N+](=O)[O-])cc2)CC1
Answer Label: inactive
//
Molecule: O=C(CSc1nnnn1-c1ccccc1)Nc1ccccc1
Answer Label: inactive
//
Molecule: Cc1cnc2nc3c(cc2c1)CN(S(=O)(=O)c1cc(F)ccc1C)CC3
Answer Label: inactive
//
Molecule: COc1ccccc1OCCNC(=O)c1cc(C2CC2)nc2c1cnn2C(C)C
Answer Label: inactive
//
Molecule: O=C(c1cnccn1)N1CCc2[nH]c3ccc(F)cc3c2C1
Answer Label: inactive
//
Molecule: COc1ncccc1CN1CCn2c(Cn3cncn3)cnc2C1C (stereo not drawn)
Answer Label: inactive
//
Molecule: O=C(c1cc2ccccc2o1)N1CC=C(c2ccccc2)CC1
Answer Label: inactive
//
Molecule: Cc1ccc(C(=O)NCc2ccc(C(=O)Nc3ccc(C)c(C)c3)o2)cc1
Answer Label: inactive
//
Molecule: FC(F)(F)c1cccc(Nc2nnc(-c3cccnc3)s2)c1
Answer Label: inactive
//
Molecule: COc1ccc(C)cc1NC(=O)Cc1csc(NC(=O)c2ccc(=O)[nH]c2)n1
Answer Label: inactive
//
Molecule: COc1ccccc1NC(=O)c1nn(-c2cccc(F)c2)c(OC)cc1=O
Answer Label: inactive
//
Molecule: O=C(c1ccco1)N1CCC2(CC1)CC1(CO2)Nc2ccccc2-n2cccc21 (stereo not drawn)
Answer Label: inactive
//
Molecule: Cc1cc(O)c2c3c(c(O)c4c(c13)O[C@@H](C)C4(C)C)C(=O)C2=O
Answer Label: active
//
Molecule: COc1cccc(NC(=O)CSc2nnc(-c3cc4cccc(OC)c4o3)n2C)c1
Answer Label: active
//
Molecule: CCCN1CCN(C(=O)c2cc(NC(=O)C3CCC3)cc3nc(C)ccc23)CC1
Answer Label: inactive
//
Molecule: Cc1nn(-c2ccccc2)c2c1N=C1C(Cl)=CC(Cl)=CN1C21C(=O)Nc2ccccc21 (stereo not drawn)
Answer Label: inactive
//
Molecule: O=C(CC1C(=O)N(Cc2cccnc2)c2nc3ccccc3n21)Nc1cccc2ccccc12 (stereo not drawn)
Answer Label: inactive
//
Molecule: CSc1nc2ncc3c(=O)n(CCc4ccccc4)ccc3n2n1
Answer Label: inactive
//
Molecule: O=C(CCCn1c(=O)[nH]c2cc(Cl)ccc2c1=O)N1CCc2ccccc2C1
Answer Label: active
//
Molecule: O=C(Nc1cccn(Cc2c(Cl)cccc2Cl)c1=O)c1ccccc1[N+](=O)[O-]
Answer Label: inactive
//
Molecule: CCc1ccc(NC(=O)COC(=O)c2n[nH]c3ccccc23)cc1
Answer Label: active
//
Molecule: Cc1cc(NC(=O)Cn2c(=O)n(CCCCC(=O)NCc3ccco3)c(=O)c3ccccc32)ccc1Br
Answer Label: active

src = PubChem BioAssay AID1645868
